molecular target: relevant receptors; assay: Cyclase, table of GIP/amylin-sCT hybrids; assay type: biochemical; details: receptor and unit inferred
Measured Property: pEC50
Expect pEC50 as a plain number equal to -log10 of the molar concentration.

// returns pEC50 for YAEGTFISDYSIAMDKIHQQDFVNWLLAQKPSSGAPPPS [Compound 1] with relevant receptors; value = 6.28

* * *

biological target: cardiomyocyte Gs-coupled receptors; assay: cAMP production in isolated neonatal cardiomyocytes (HTRF); type: cell-based, rat; conditions: experiment of FIGS. 18A/18B; read-out: EC50, cAMP production in cardiomyocytes
Measured Property: EC50 (µM)
Express the result in µM but write the number alone.

Lookup result for YaEGTFISDYSIAMDKIHQQDFVNWLLAQKPSSGAPPPS-NH2 [Compound 0601GIP3794] ; measured EC50: 0.0117

* * *

target: cardiomyocyte Gs-coupled receptors; test: cAMP production in isolated neonatal cardiomyocytes (HTRF); format: cell-based, rat; conditions: from three independent experiments; read-out: EC50, cardiomyocyte Gs-coupled receptor activation
Measured Property: pEC50
Expect pEC50 as a plain number equal to -log10 of the molar concentration.

Lookup result for YaEGTFISDYSIAMDKIHQQDFVNWLLAQKPSSGAPPPS-NH2 [Compound 0601GIP3794] ; measured pEC50: 7.53
